biological target: UniProt P05181
Sequence (P05181 whole entry): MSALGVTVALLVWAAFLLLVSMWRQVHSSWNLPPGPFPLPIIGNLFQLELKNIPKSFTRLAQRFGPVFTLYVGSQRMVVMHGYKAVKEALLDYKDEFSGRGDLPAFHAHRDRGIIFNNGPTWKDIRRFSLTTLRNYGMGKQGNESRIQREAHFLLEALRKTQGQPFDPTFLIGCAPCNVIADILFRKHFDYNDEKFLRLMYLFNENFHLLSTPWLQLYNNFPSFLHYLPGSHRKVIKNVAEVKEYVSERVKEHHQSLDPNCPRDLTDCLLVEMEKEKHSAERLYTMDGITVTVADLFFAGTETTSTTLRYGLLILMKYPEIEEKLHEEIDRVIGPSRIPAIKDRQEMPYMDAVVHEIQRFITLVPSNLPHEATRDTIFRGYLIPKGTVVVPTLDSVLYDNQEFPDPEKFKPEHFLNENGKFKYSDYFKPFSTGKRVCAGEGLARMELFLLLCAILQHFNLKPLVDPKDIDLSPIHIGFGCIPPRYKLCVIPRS
measurement.name: Ki (µM)
Numbers only, in µM.

Fill in reported Ki for this entry: COc1cc(O)cc2c1C(=O)C[C@@H](c1ccccc1)O2 [alpinetin]
5.4

---

target: CYP3A4 (Homo sapiens)
measurement.name: Ki

Fill in reported Ki for this entry: COc1cc(O)cc2c1C(=O)C[C@@H](c1ccccc1)O2
4.09 µM

---

molecular target: CYP3A4 (Homo sapiens, UniProt P08684); construct: The pooled human liver microsomes (HLMs) were obtained from BD Biosciences Discovery Labware; tissue BD Biosciences Discovery Labware; host or cells: pooled human liver microsomes; experiment: Time-dependent inhibition assay of CYP3A4 in human liver microsomes; type: in vitro ADME; details: 30 min pre-incubation, 1 mg/mL HLMs, substrate approx. 4-fold Km
Sequence (P08684 whole entry): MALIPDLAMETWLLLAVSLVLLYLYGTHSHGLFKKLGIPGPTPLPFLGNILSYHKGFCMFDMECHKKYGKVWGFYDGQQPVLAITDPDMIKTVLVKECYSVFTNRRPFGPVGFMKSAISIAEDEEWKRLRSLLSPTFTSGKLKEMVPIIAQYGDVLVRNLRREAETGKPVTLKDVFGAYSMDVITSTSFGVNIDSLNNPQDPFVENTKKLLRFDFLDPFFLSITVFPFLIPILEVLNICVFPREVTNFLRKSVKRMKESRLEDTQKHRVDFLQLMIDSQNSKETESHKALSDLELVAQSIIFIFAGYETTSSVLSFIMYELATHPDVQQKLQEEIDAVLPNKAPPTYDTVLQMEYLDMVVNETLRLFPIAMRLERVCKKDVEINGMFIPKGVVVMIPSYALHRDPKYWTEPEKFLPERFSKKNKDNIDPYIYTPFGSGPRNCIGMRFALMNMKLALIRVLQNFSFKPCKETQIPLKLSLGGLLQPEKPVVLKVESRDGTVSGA
measurement.name: Kinact of time-dependent CYP3A4 inhibition (min⁻¹)
Answers are plain numbers, in min⁻¹.

Fill in reported Kinact of time-dependent CYP3A4 inhibition for this entry: COc1cc(O)cc2c1C(=O)C[C@@H](c1ccccc1)O2
0.041

Origin of measurements: paper PMC9154758
